Target: human CD33 T139A (human, UniProt P20138 18-364)
Sequence (P20138 18-364 T139A limits assumed): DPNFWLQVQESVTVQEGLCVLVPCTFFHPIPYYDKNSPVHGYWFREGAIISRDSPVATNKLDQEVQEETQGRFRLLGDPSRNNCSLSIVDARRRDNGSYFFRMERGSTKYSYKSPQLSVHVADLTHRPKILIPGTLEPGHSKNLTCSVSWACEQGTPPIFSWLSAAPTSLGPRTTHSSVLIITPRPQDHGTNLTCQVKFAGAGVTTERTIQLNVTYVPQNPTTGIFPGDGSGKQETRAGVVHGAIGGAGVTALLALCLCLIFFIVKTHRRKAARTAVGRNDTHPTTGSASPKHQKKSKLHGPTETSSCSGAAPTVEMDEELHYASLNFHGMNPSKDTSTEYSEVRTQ
Experiment: flow cytometry on HEK293-T, alanine scan

{"columns": ["Binder", "Mean % WT Binding / % WT binding"],
 "data": [
  ["Refmab #2 (antibody, V domains shown, The alanine scan used IgG or Fab) VH: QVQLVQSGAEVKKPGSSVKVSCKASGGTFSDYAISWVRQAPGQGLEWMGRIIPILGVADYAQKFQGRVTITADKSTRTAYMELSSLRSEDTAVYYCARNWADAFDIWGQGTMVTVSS VL: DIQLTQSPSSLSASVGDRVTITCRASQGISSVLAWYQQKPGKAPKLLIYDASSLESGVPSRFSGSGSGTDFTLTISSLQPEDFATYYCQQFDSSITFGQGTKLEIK", 123],
  ["Refmab #3 (antibody, V domains shown, The alanine scan used IgG or Fab) VH: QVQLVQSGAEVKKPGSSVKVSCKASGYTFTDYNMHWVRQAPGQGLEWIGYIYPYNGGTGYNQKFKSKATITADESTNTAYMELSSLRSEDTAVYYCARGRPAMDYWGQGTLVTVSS VL: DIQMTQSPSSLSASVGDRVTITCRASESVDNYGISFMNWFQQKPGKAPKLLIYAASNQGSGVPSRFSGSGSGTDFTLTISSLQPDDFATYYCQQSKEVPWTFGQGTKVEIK", 143],
  ["Refmab #1 (antibody, V domains shown, The alanine scan used IgG or Fab; also called hP67.6) VH: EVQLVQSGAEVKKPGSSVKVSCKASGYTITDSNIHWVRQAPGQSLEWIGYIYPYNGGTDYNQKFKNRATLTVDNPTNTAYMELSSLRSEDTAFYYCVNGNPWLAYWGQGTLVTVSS VL: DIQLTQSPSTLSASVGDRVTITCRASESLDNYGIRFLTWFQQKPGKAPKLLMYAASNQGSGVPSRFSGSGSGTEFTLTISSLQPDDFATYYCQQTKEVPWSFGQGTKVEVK", 89.9],
  ["Refmab #4 (antibody, V domains shown, The alanine scan used IgG or Fab) VH: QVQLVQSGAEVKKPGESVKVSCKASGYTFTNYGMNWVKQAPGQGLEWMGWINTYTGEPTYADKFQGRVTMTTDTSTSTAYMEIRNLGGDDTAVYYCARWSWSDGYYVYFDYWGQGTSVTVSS VL: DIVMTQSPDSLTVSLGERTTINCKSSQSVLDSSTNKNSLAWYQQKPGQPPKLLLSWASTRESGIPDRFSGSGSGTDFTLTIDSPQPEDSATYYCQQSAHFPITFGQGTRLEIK", 84.3]
]}

Data provenance: patent US20260242735A1
